- assayed_system: Follistatin-related protein 3 (Homo sapiens)
- assay: compounds binding follistatin-related protein 3 – biochemical, small-molecule microarray, 635 nm fluorescence, primary screen (AID 1105);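 further: score merges emission near 667 nm and signal to noise per printed spot across three slides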
- test_conditions: FSTL3 binding, higher = more signal
composite z-score for assorted molecules
Answer with a bare number; do not write a unit.

// known answers, use as guide
- molecule: "O=C1OCCC=C[C@H]2OC34C=CCN(CCN5CCOCC5)C(=O)[C@H]3N(CCO)C(=O)[C@@H]4C12 (some centres undefined)"
  assayed_system: "Follistatin-related protein 3 (Homo sapiens)"
  composite z-score: -0.0836
- molecule: "CCCCN1CC=CC23O[C@@H]4C=CCCOC(=O)C4[C@H]2C(=O)N(CCCO)[C@@H]3C1=O (some centres undefined)"
  assayed_system: "Follistatin-related protein 3 (Homo sapiens)"
  composite z-score: -0.739
- molecule: "O=C1C2C=CC(C(O)c3ccc(Br)cc3)N(n3cnnc3)C2C(=O)N1Cc1ccccc1 (centres undefined)"
  assayed_system: "Follistatin-related protein 3 (Homo sapiens)"
  composite z-score: 0.819

Which composite z-score reading was recorded for the molecule C=CCCN(CC#C[C@H]1Oc2ccccc2S(=O)(=O)N2CCC[C@@H]12)S(=O)(=O)c1ccc(C)cc1 ?
0.485
